Target or system S. aureus FAD209P JC-1: recorded MIC listed per item.
Hey, just the number and the unit after it is fine.

Solved entries (count: 2):
* C[C@@H](O)[C@H]1C(=O)N2C(C(=O)O)=C([C@@H]3CCCCO3)S[C@H]12 | 0.1 µg/mL
* C[C@@H](O)[C@H]1C(=O)N2C(C(=O)O)=C([C@H]3CCOC3)S[C@H]12 | 0.05 µg/mL

Report MIC for each item below.
1. C[C@@H](O)[C@H]1C(=O)N2C(C(=O)O)=C([C@H]3COCCO3)S[C@H]12
2. C[C@@H](O)[C@H]1C(=O)N2C(C(=O)O)=C([C@@H]3CCOC3)S[C@H]12
3. C[C@@H](O)[C@H]1C(=O)N2C(C(=O)O)=C([C@H]3CCC(=O)O3)S[C@H]12
4. C[C@@H](O)[C@H]1C(=O)N2C(C(=O)O)=C(C3COCCO3)S[C@H]12 (mixture of isomers)
5. C[C@@H](O)[C@H]1C(=O)N2C(C(=O)O)=C([C@@H]3CCC(=O)O3)S[C@H]12
6. CCOCC1=C(C(=O)O)N2C(=O)[C@H]([C@@H](C)O)[C@H]2S1 (relative stereo) [SUN 3519, reference compound]
7. C[C@@H](O)[C@H]1C(=O)N2C(C(=O)O)=C([C@H]3CCCO3)S[C@H]12

1: 0.05 µg/mL; 2: 0.05 µg/mL; 3: 0.1 µg/mL; 4: 0.05 µg/mL; 5: 0.2 µg/mL; 6: 0.2 µg/mL; 7: 0.05 µg/mL

Could you tell me MIC for each of these molecules? They are listed below.
1. C[C@@H](O)[C@H]1C(=O)N2C(C(=O)O)=C(c3ccoc3)S[C@H]12 (relative stereo) [SUN 4196, reference compound]
2. C[C@@H](O)[C@H]1C(=O)N2C(C(=O)O)=C([C@@H]3CCCO3)S[C@H]12 (relative stereo) [SUN 4118]
3. C[C@@H](O)[C@H]1C(=O)N2C(C(=O)O)=C(c3ccco3)S[C@H]12 (relative stereo) [SUN 4194, reference compound]

1. 0.2 µg/mL
2. 0.1 µg/mL
3. 0.39 µg/mL

* * *

# experimental protocol: Acute toxicity test
# Assay type: in vivo
# run conditions: mouse, in vivo, iv, male mice; route not restated (follows intravenous paragraph); read-out: 50% lethal dose (LD50)
observed property: LD50 (mg/kg)
One number for each entry, in mg/kg.

I am curious: what LD50 value has been reported for `C[C@@H](O)[C@H]1C(=O)N2C(C(=O)O)=C([C@H]3CCCO3)S[C@H]12` ?
480
